Reference for the values: ChEMBL document CHEMBL4334550

Experiment: Oral bioavailability in human at 500 mg administered twice as 250 mg tablet formulation measured 16 hrs post dose
Format: ADME, organism-based
Conditions: in vivo
measurement kind: bioavailability

> print(dat)
                                   compound  result
1  C[C@H]1[C@H](NC(=O)/C(=N\OC(C)(C)C(=O)O)c2csc(N)n2)C(=O)N1S(=O)(=O)O    < 1%

====

Assay: Oral bioavailability in human at 500 mg administered as solution measured 16 hrs post dosing
Assay type: ADME, organism-based
Settings: in vivo
measurement kind: bioavailability

> print(dat)
                                   compound  result
1  C[C@H]1[C@H](NC(=O)/C(=N\OC(C)(C)C(=O)O)c2csc(N)n2)C(=O)N1S(=O)(=O)O    < 1%
